B1: Pistol ribozyme (parent)
chain: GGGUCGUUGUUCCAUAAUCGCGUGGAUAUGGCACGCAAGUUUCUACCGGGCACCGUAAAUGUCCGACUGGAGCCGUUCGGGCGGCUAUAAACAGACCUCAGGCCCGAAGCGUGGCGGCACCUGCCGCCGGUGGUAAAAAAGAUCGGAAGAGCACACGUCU

Variants of: B1
Assay: aptazyme ON/OFF ratio, guanine; higher = stronger switching; co-transcriptional cleavage with and without guanine
Entries annotated with measured aptazyme ON/OFF ratio
# respond with the number and nothing more

Solved cases below.
• U8A G9U U10C C12U C13A = 1.08
• U8A G9C U10A U11C C12G C13U = 1.07
• U7A G9U U10C U11G C12G C13A = 1.14
• U8A G9U U10A U11G C12A C13U = 1.21
• U7G G9C U10A U11G C12G C13U = 1.12

Lab note: next variant to report on.
Field aptazyme ON/OFF ratio (entry U7A U8C G9C U10A U11C C12U C13A ) reads 1.05
